Target: T1, full-length human APLNR (amino acids 1-380 of accession number NP-005152.1) (human, UniProt P35414 1-380)
T1 sequence (looked up): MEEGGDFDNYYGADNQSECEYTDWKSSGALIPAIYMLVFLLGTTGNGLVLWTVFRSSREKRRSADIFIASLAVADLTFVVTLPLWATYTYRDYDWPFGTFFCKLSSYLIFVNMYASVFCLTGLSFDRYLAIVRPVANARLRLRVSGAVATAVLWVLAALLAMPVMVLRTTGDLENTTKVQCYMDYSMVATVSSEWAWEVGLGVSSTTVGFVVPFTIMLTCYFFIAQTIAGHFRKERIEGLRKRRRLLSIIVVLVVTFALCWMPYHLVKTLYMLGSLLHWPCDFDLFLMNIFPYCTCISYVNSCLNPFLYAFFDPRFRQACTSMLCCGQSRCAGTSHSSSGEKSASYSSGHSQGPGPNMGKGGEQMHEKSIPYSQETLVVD
Assay: cell-based or functional assay
Reported EC50 (M), CRE assay (cAMP reporter) in HEK293/CRE-luc/hAPLNR cells by item:
Express it in M; write the number only.

// worked examples, EC50 (M), CRE assay (cAMP reporter) in HEK293/CRE-luc/hAPLNR cells included
The recorded EC50 (M), CRE assay (cAMP reporter) in HEK293/CRE-luc/hAPLNR cells for entry PRLSHKGPMPF [Apelin-11] equals 4.38e-10

The recorded EC50 (M), CRE assay (cAMP reporter) in HEK293/CRE-luc/hAPLNR cells for entry RPRLSHKGPMP [Apelin66-76] equals 5.19e-12

The recorded EC50 (M), CRE assay (cAMP reporter) in HEK293/CRE-luc/hAPLNR cells for entry QRPRLSHKGPMPFGGGGG [Apelin-13 + 5G] equals 1.47e-10

The recorded EC50 (M), CRE assay (cAMP reporter) in HEK293/CRE-luc/hAPLNR cells for entry PRLSHKGPM [Apelin67-75] equals 3.74e-07

The recorded EC50 (M), CRE assay (cAMP reporter) in HEK293/CRE-luc/hAPLNR cells for entry RPRLSHKGPM [Apelin66-75] equals 2.17e-12

--- query ---
The recorded EC50 (M), CRE assay (cAMP reporter) in HEK293/CRE-luc/hAPLNR cells for entry PRLSHKGPMP [Apelin67-76] equals 1.14e-13
